assay details: chemical genetic growth profiling, strain panel (AID 1159580);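 note: tested at 20 µM; growth read once vehicle control cultures reached saturation at 30 °C; 1 = growth at the plate median or of vehicle wells; lower values mean less growth of the strain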
protocol conditions: S. cerevisiae deletion strains, growth OD, locus YNL071W, strain lat1, active compounds read low
About 2,000 (36%) of roughly 5,500 compounds were called active. Not shown: some 18% with an inconclusive outcome. The list shows a part of the results.
endpoint name: normalized growth
# print the numeric value only

Q. Can you share its normalized growth? I mean this compound: c1ccc2c(CC3=NCCN3)cccc2c1
A. 0.961

Q. Need normalized growth of CCCCC(=O)O[C@]1(C(=O)CO)CCC2C3CCC4=CC(=O)CC[C@]4(C)C3[C@@H](O)C[C@@]21C (some centres not stated) , thanks.
A. 0.979

Q. For the compound CC12CCC3C(=CCc4cc(O)ccc43)C1CCC2=O (configuration not stated) , what normalized growth is on record?
A. 0.978

Q. Item CC(=O)O[C@H]1C[C@@H](OC(C)=O)C(C)(C)C2C[C@@H](OC(C)=O)[C@]3(C)C(CC[C@@]4(C)[C@H](c5ccoc5)OC(=O)[C@H]5O[C@]543)[C@]21C (some centres not stated) has what recorded normalized growth?
A. 0.992

Q. Need normalized growth of CC1[C@H](C)OC(=O)CC(O)CC(O)CC(O)CCC(O)C(O)C[C@]2(O)CC(O)C(C(=O)O)C(CC(OC3O[C@H](C)[C@@H](O)[C@H](N)[C@@H]3O)/C=C/C=C/C=C/C=C/CC/C=C/C=C/[C@H](C)[C@H]1O)O2 (some centres not stated) , thanks.
A. 0.885

Q. Entry under review: C[C@H]1C[C@@H](O)[C@]2(O)[C@@]13CC(=O)OC[C@@]2(C)[C@](C)(O)C(=O)C3 . Reported normalized growth?
A. 1.03

Q. Recorded normalized growth of Cc1nnc(NS(=O)(=O)c2ccc(N)cc2)s1 , please.
A. 0.993

Q. Any idea what normalized growth was measured for CC1C/C=C/C=C/C=C/C=C/C(O[C@@H]2O[C@H](C)[C@@H](O)[C@H](N)[C@@H]2O)CC2OC(O)(CC(O)CC3OC3/C=C/C(=O)O1)CC(O)C2C(=O)O (some centres not stated) ?
A. 1

Q. I'd like to know its normalized growth. The compound in question is NCCCNCCSP(=O)(O)O
A. 0.983

Q. Look up normalized growth for this compound: COC(=O)[C@H](c1ccccc1Cl)N1CCc2sccc2C1
A. 0.968

Q. Which normalized growth value belongs to CC(=O)O[C@@H]1CC2C(C)(C)[C@H](O)CC[C@]2(C)C2CC[C@@]3(C)[C@H](c4ccoc4)OC(=O)C4OC43[C@@]21C (some centres not stated) ?
A. 0.994

Q. normalized growth for CCC(=O)OC1[C@@H]2CC3=C4CC(=O)O[C@@H](c5ccoc5)[C@]4(C)CCC3[C@@](C)(C2=O)[C@@H](CC(=O)OC)C1(C)C (some centres not stated) ?
A. 0.993

Q. Record request: normalized growth value, item COC1C=CC23c4cc5c(cc4CN(CC2O)[C@@H]3C1)OCO5 (some centres not stated)
A. 0.97

Q. Give its normalized growth value. Item: CN(C)CCC(c1ccccc1)c1ccccn1 (configuration not stated)
A. 1.01

Q. Any idea what its normalized growth is? The compound is COc1cc(C)c2c(=O)cc(-c3ccccc3)oc2c1
A. 0.687

Q. Which normalized growth value is on record for Cc1cccc(C)c1NC(=O)C1CCCCN1C (configuration not stated) ?
A. 0.989

Q. Look up normalized growth: C=NC(C(=O)NC1C(=O)N2C1SC(C)(C)C2C(=O)O)c1ccccc1 (configuration not stated)
A. 0.998

Q. Please give the measured normalized growth for this compound: O=C(O)CCCCCCCC(=O)O
A. 1

Q. Recorded normalized growth of CCCNC(=O)NS(=O)(=O)c1ccc(Cl)cc1 , please.
A. 1.03

Q. normalized growth for Oc1c(Cl)cc(Cl)c(Cl)c1Cc1c(O)c(Cl)cc(Cl)c1Cl ?
A. 0.0618

Q. Recorded normalized growth of O=c1[nH]c(=O)n(C2C[C@H](O)[C@@H](CO)O2)cc1C(F)(F)F (some centres not stated) , please.
A. 1

Q. Item under review: COc1ccc2nc(S(=O)Cc3ncc(C)c(OC)c3C)[nH]c2c1 (configuration not stated) . Reported normalized growth?
A. 0.702

Q. For the compound shown here, CC(=O)OCC(=O)[C@@]1(O)CCC2C3CCC4=CC(=O)C=CC4(C)C3[C@@H](O)C[C@@]21C (some centres not stated) , give the reported normalized growth.
A. 1.01

Q. Which normalized growth reading was recorded for the compound C=C1C(=O)[C@]23[C@H](O)[C@H]1CC[C@H]2[C@@]12CO[C@]3(O)[C@H](O)[C@@H]1C(C)(C)CC[C@@H]2O ?
A. 1.01

Q. Given CC(=O)Oc1ccc2c(c1)CCC1C2CC[C@]2(C)C(=O)CCC12 (some centres not stated) , state its recorded normalized growth.
A. 0.994

Q. May I ask what normalized growth has been recorded for O=C(O)CCC1NCC2CC1CN1CCCCC21 (configuration not stated) ?
A. 0.991

Q. Dear colleague, I am looking for the recorded normalized growth of the following compound: CC(=O)O[C@@H]1CC2C(C)(C)[C@H](O)C=C[C@]2(C)C2CC[C@@]3(C)[C@H](c4ccoc4)OC(=O)C4OC43[C@@]21C (some centres not stated)
A. 1.02

Q. # lookup: normalized growth of CC(=O)O[C@@H]1CC2C(C)(C)C(=O)C3OC3[C@]2(C)C2CC[C@@]3(C)[C@H](c4ccoc4)OC(=O)C4OC43[C@@]21C (some centres not stated)
A. 0.99

Q. Query: normalized growth; subject: NCCCCC(=O)O
A. 1.01

Q. normalized growth for CCC(C)C(=O)c1c(O)c(C)c2oc3c(C)c(O)c(C(=O)C(C)CC)c(O)c3c2c1O (configuration not stated) ?
A. 1

Q. Quick one: normalized growth for COc1ccc(-c2oc3cc(OC)c(OC)c(OC)c3c(=O)c2OC)cc1OC ?
A. 0.969

Q. Name the recorded normalized growth for COP(=S)(OC)Oc1ccc([N+](=O)[O-])cc1 .
A. 0.934

Q. Reported normalized growth, compound Clc1ccccc1CN1CCc2sccc2C1 : ____
A. 0.906

Q. For the compound shown here, COc1ccc2oc3ccccc3c(=O)c2c1 , give the reported normalized growth.
A. 0.421

Q. Recorded normalized growth for NCCCCCC(=O)O , please?
A. 0.991

Q. I have this compound here, CC1(C)C(=O)[C@@H]2O[C@@H]2[C@@]2(C)C1C[C@@H](O)[C@]1(C)C2CC[C@@]2(C)[C@H](c3ccoc3)OC(=O)C3OC321 (some centres not stated) , and I need its recorded normalized growth.
A. 0.998

Q. May I ask what normalized growth has been recorded for C[C@]12CCC3c4ccc(O)cc4CCC3C1CCC2=O (some centres not stated) ?
A. 0.937

---

assay details: chemical genetic growth profiling, strain panel (AID 1159580);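 note: tested at 20 µM; growth read once vehicle control cultures reached saturation at 30 °C; 1 = growth at the plate median or of vehicle wells; lower values mean less growth of the strain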
protocol conditions: S. cerevisiae deletion strains, growth OD, locus YLL041C, strain sdh2, active compounds read low
Out of some 5,500 compounds screened, about 2,000 (36%) were called active. Not shown: some 18% with an inconclusive outcome. This is one part of the list.
endpoint name: normalized growth
Reply: number alone, nothing else.

Q. Please give the measured normalized growth for this molecule: C[C@]12CCC3c4ccc(O)cc4CCC3C1CCC2=O (stereo partly drawn)
A. 1.02

Q. Returns the measured normalized growth for the input molecule. Input: CC1(C)N([O-])[N+](=O)C1(C)Br (stereo not drawn)
A. 0.99

Q. Given the entry C[C@H]1C[C@@H](O)[C@]2(O)[C@@]13CC(=O)OC[C@@]2(C)[C@](C)(O)C(=O)C3 , report its measured normalized growth.
A. 1.02

---

assay details: chemical genetic growth profiling, strain panel (AID 1159580);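 note: tested at 20 µM; growth read once vehicle control cultures reached saturation at 30 °C; 1 = growth at the plate median or of vehicle wells; lower values mean less growth of the strain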
protocol conditions: S. cerevisiae deletion strains, growth OD, locus YLR370C, strain arc18, active compounds read low
The whole screen tested about 5,500 compounds, of which about 2,000 (36%) were called active. Inconclusive results (about 18%) are left out. This is one part of the list.
endpoint name: normalized growth
Give a plain numeric answer without units written out.

Q. Quick one: normalized growth of Clc1ccc(C(Cn2ccnc2)OCc2ccsc2Cl)c(Cl)c1 (stereo not given) ?
A. 0.0594

Q. Consider the compound shown here: CC(=O)OC/C=C(\C)CC/C=C(\C)CC/C=C(\C)CC/C=C(\C)CC/C=C(\C)CC/C=C(\C)CC/C=C(\C)CC/C=C(\C)CCC=C(C)C What is its recorded normalized growth?
A. 0.994

Q. # query: normalized growth of entry Cc1oncc1C(=O)Nc1ccc(C(F)(F)F)cc1
A. 1.01

Q. Please report the recorded normalized growth for COC(=O)[C@H](c1ccccc1Cl)N1CCc2sccc2C1 .
A. 0.975

Q. May I ask what normalized growth has been recorded for CCC(C)C(=O)c1c(O)c(C)c2oc3c(C)c(O)c(C(=O)C(C)CC)c(O)c3c2c1O (stereo not given) ?
A. 0.983
